Provide the recorded total protein half-life in vivo for the entries that follow.
experiment: total protein half-life in vivo (active degradation + dilution); higher = more stable protein; settings: wild type E. coli NCM3722; growth: N-lim chemostat; doubling time 12 h
Numbers only, in h.

{"columns": ["constructSequence", "value"],
 "data": [
  ["MLIFEGKEIETDTEGYLKESSQWSEPLAVVIAENEGISLSPEHWEVVRFVRDFYLEFNTSPAIRMLVKAMANKFGEEKGNSRYLYRLFPKGPAKQATKIAGLPKPVKCI [P0AB18]", 6.82],
  ["MFKRRYVTLLPLFVLLAACSSKPKPTETDTTTGTPSGGFLLEPQHNVMQMGGDFANNPNAQQFIDKMVNKHGFDRQQLQEILSQAKRLDSVLRLMDNQAPTTSVKPPSGPNGAWLRYRKKFITPDNVQNGVVFWNQYEDALNRAWQVYGVPPEIIVGIIGVETRWGRVMGKTRILDALATLSFNYPRRAEYFSGELETFLLMARDEQDDPLNLKGSFAGAMGYGQFMPSSYKQYAVDFSGDGHINLWDPVDAIGSVANYFKAHGWVKGDQVAVMANGQAPGLPNGFKTKYSISQLAAAGLTPQQPLGNHQQASLLRLDVGTGYQYWYGLPNFYTITRYNHSTHYAMAVWQLGQAVALARVQ", 10.8],
  ["MQASQFSAQVLDWYDKYGRKTLPWQIDKTPYKVWLSEVMLQQTQVATVIPYFERFMARFPTVTDLANAPLDEVLHLWTGLGYYARARNLHKAAQQVATLHGGKFPETFEEVAALPGVGRSTAGAILSLSLGKHFPILDGNVKRVLARCYAVSGWPGKKEVENKLWSLSEQVTPAVGVERFNQAMMDLGAMICTRSKPKCSLCPLQNGCIAAANNSWALYPGKKPKQTLPERTGYFLLLQHEDEVLLAQRPPSGLWGGLYCFPQFADEESLRQWLAQRQIAADNLTQLTAFRHTFSHFHLDIVPMWLPVSSFTGCMDEGNALWYNLAQPPSVGLAAPVERLLQQLRTGAPV", 6.05]
]}

Let's switch to this sequence now.
# lookup: total protein half-life in vivo of MSKVCIIAWVYGRVQGVGFRYTTQYEAKRLGLTGYAKNLDDGSVEVVACGEEGQVEKLMQWLKSGGPRSARVERVLSEPHHPSGELTDFRIR [P0AB65]
9.77

---

assay: total protein half-life in vivo (active degradation + dilution); higher = more stable protein; settings: wild type E. coli NCM3722; growth: N-lim chemostat; doubling time 6 h
parameter: total protein half-life in vivo (h)
Give bare numbers, in h.

Record excerpt, results attached:
{"columns": ["constructSequence", "total protein half-life in vivo [h]"],
 "data": [
  ["MKKKRPVLQDVADRVGVTKMTVSRFLRNPEQVSVALRGKIAAALDELGYIPNRAPDILSNATSRAIGVLLPSLTNQVFAEVLRGIESVTDAHGYQTMLAHYGYKPEMEQERLESMLSWNIDGLILTERTHTPRTLKMIEVAGIPVVELMDSKSPCLDIAVGFDNFEAARQMTTAIIARGHRHIAYLGARLDERTIIKQKGYEQAMLDAGLVPYSVMVEQSSSYSSGIELIRQARREYPQLDGVFCTNDDLAVGAAFECQRLGLKVPDDMAIAGFHGHDIGQVMEPRLASVLTPRERMGSIGAERLLARIRGESVTPKMLDLGFTLSPGGSI [P0ACP5]", 6.14],
  ["MKKIPLGTTDITLSRMGLGTWAIGGGPAWNGDLDRQICIDTILEAHRCGINLIDTAPGYNFGNSEVIVGQALKKLPREQVVVETKCGIVWERKGSLFNKVGDRQLYKNLSPESIREEVAASLQRLGIDYIDIYMTHWQSVPPFFTPIAETVAVLNELKSEGKIRAIGAANVDADHIREYLQYGELDIIQAKYSILDRAMENELLPLCRDNGIVVQVYSPLEQGLLTGTITRDYVPGGARANKVWFQRENMLKVIDMLEQWQPLCARYQCTIPTLALAWILKQSDLISILSGATAPEQVRENVAALNINLSDADATLMREMAEALER", 3.97]
]}

Shifting focus to the sequence that follows.
For `MDLASLRAQQIELASSVIREDRLDKDPPDLIAGADVGFEQGGEVTRAAMVLLKYPSLELVEYKVARIATTMPYIPGFLSFREYPALLAAWEMLSQKPDLVFVDGHGISHPRRLGVASHFGLLVDVPTIGVAKKRLCGKFEPLSSEPGALAPLMDKGEQLAWVWRSKARCNPLFIATGHRVSVDSALAWVQRCMKGYRLPEPTRWADAVASERPAFVRYTANQP` , what is its reported total protein half-life in vivo?
5.08
